biological target: c-Met kinase (Homo sapiens (Human), UniProt P08581); assay: c-Met TR-FRET kinase assay; format: biochemical; details: 1000 nM compound
Sequence (P08581 25-1390): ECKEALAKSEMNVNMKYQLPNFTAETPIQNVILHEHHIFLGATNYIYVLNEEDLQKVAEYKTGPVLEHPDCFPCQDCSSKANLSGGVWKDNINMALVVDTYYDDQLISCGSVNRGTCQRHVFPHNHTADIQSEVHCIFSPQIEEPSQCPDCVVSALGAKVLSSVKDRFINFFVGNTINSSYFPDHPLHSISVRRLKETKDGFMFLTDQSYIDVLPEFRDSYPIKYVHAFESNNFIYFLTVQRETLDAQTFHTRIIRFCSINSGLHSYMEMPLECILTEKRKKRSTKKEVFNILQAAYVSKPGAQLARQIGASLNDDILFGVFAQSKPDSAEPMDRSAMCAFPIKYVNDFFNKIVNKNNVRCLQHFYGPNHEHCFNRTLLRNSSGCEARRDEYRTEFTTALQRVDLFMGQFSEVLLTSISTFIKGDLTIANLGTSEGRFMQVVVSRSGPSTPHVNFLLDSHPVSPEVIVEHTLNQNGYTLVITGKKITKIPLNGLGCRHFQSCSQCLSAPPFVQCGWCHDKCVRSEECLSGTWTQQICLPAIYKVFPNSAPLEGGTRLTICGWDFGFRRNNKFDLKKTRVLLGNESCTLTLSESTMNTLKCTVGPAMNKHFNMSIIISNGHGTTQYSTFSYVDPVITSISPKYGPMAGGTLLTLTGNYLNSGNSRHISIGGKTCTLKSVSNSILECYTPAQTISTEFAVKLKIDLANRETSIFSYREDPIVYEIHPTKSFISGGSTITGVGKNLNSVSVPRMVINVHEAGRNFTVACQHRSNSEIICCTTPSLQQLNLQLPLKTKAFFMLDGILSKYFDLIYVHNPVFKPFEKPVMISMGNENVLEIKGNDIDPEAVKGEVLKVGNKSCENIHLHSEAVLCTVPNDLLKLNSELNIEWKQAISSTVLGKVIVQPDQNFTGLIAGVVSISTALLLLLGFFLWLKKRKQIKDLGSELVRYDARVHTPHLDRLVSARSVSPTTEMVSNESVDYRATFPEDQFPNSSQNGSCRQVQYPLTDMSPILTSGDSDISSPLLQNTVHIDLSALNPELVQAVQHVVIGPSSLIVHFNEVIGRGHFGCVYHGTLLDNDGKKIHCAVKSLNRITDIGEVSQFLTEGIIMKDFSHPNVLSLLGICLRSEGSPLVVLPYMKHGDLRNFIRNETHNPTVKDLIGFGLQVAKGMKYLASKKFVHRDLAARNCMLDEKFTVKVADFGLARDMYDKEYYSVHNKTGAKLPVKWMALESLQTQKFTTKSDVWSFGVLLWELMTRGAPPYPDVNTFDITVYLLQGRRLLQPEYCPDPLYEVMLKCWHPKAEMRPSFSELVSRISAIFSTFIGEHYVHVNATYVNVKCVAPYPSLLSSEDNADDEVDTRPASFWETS
MEASUREMENT NAME: inhibition at 1 µM (%)

As a guide, the following entries are already answered.
>  <GIVEN SMILES>
CC(=O)Nc1cc(-c2ccc(C)o2)cc(-n2cnc3cc(-c4cnn(CCN(C)C)c4)ccc32)c1

>  <inhibition at 1 µM (%)>
15

$$$$
>  <GIVEN SMILES>
O=C(Nc1cc(-c2ccc(F)cc2F)cc(-n2cnc3cc(-n4cccn4)ccc32)c1)NC1CCCC1

>  <inhibition at 1 µM (%)>
0

$$$$
>  <GIVEN SMILES>
CCS(=O)(=O)Nc1cc(-c2ccc(F)cc2F)cc(-n2cnc3cc(-c4cn(CCN5CCOCC5)nn4)ccc32)c1

>  <inhibition at 1 µM (%)>
9

$$$$
>  <GIVEN SMILES>
CCS(=O)(=O)Nc1cc(-c2ccc(F)cc2)cc(-n2cnc3cc(-n4cccn4)ccc32)c1

>  <inhibition at 1 µM (%)>
11

$$$$
>  <GIVEN SMILES>
Cn1cc(-c2cnc3c(c2)ncn3-c2cc(NS(=O)(=O)c3ccccc3)cc(-c3ccc(F)cc3F)c2)cn1

>  <inhibition at 1 µM (%)>
0

$$$$
>  <GIVEN SMILES>
CCS(=O)(=O)Nc1cc(-c2ccc(F)cc2F)cc(-n2cnc3cc(-n4cccn4)ccc32)c1

>  <inhibition at 1 µM (%)>
1

$$$$

I = CC(C)S(=O)(=O)Nc1cc(-c2cc(F)ccc2F)cc(-n2cnc3cc(-c4cnn(CCN5CCOCC5)c4)ccc32)c1
II = COc1ccc(-c2cc(NC(C)=O)cc(-n3cnc4cc(-c5cnn(C)c5)ccc43)c2)cn1
III = CC(=O)Nc1cc(-n2cncn2)cc(-n2cnc3cc(-c4cnn(C)c4)ccc32)c1
input: List these items ordered by inhibition at 1 µM, big to small. Quick reminder: the answer is the labels in the order asked.
output: II, III, I
(II: 12%, III: 1%, I: 0%)

---

biological target: c-Met kinase (Homo sapiens (Human)); assay: c-Met TR-FRET kinase assay; format: biochemical; details: 1000 nM compound
MEASUREMENT NAME: inhibition at 1 µM (%)

>  <COMPOUND>
CC(=O)Nc1cc(-c2c(F)cccc2F)cc(-n2cnc3cc(-n4cccn4)ccc32)c1 [Example 152]

>  <TESTED SYSTEM>
c-Met kinase (Homo sapiens (Human))

>  <inhibition at 1 µM [%]>
0

$$$$
>  <COMPOUND>
COc1ccc(-c2ccc3c(c2)ncn3-c2cc(NC(C)=O)cc(-c3ccc(F)cc3)c2)cn1 [Example 69]

>  <TESTED SYSTEM>
c-Met kinase (Homo sapiens (Human))

>  <inhibition at 1 µM [%]>
-2

$$$$
>  <COMPOUND>
Cn1cc(-c2ccc3c(c2)ncn3-c2cc(NS(=O)(=O)C3CC3)cc(-c3ccc(F)cc3F)c2)cn1 [Example 5]

>  <TESTED SYSTEM>
c-Met kinase (Homo sapiens (Human))

>  <inhibition at 1 µM [%]>
7

$$$$
>  <COMPOUND>
CCS(=O)(=O)Nc1cc(-c2ccc(F)cc2F)cc(-n2cnc3cc(-c4cnn(C)c4)cnc32)c1 [Example 133]

>  <TESTED SYSTEM>
c-Met kinase (Homo sapiens (Human))

>  <inhibition at 1 µM [%]>
0

$$$$
>  <COMPOUND>
CC(C)(O)CCn1cc(-c2ccc3c(c2)ncn3-c2cc(NS(=O)(=O)C3CC3)cc(-c3ccc(F)cc3F)c2)nn1 [Example 47]

>  <TESTED SYSTEM>
c-Met kinase (Homo sapiens (Human))

>  <inhibition at 1 µM [%]>
10

$$$$
>  <COMPOUND>
CC(=O)Nc1cc(-n2cccn2)cc(-n2cnc3cc(-c4cnn(CC5CC5)c4)ccc32)c1 [Example 127]

>  <TESTED SYSTEM>
c-Met kinase (Homo sapiens (Human))

>  <inhibition at 1 µM [%]>
10

$$$$

A = CC(=O)Nc1cc(-c2ccc(F)cc2F)cc(-n2cnc3cc(-c4cnn(C)c4)cnc32)c1 [Example 131]
B = CC(=O)Nc1cc(-c2ccc(F)cc2F)cc(-n2cnc3cc(-c4cnco4)ccc32)c1 [Example 22]
input: Could you determine which record has the numerically smaller inhibition at 1 µM? Candidates: A and B // respond with label for picked entry
output: B

---

target: FGFR1 kinase (Homo sapiens (Human), UniProt P11362); experiment: FGFR1 TR-FRET kinase assay; format: biochemical; conditions: 1000 nM compound
Sequence (P11362 22-822): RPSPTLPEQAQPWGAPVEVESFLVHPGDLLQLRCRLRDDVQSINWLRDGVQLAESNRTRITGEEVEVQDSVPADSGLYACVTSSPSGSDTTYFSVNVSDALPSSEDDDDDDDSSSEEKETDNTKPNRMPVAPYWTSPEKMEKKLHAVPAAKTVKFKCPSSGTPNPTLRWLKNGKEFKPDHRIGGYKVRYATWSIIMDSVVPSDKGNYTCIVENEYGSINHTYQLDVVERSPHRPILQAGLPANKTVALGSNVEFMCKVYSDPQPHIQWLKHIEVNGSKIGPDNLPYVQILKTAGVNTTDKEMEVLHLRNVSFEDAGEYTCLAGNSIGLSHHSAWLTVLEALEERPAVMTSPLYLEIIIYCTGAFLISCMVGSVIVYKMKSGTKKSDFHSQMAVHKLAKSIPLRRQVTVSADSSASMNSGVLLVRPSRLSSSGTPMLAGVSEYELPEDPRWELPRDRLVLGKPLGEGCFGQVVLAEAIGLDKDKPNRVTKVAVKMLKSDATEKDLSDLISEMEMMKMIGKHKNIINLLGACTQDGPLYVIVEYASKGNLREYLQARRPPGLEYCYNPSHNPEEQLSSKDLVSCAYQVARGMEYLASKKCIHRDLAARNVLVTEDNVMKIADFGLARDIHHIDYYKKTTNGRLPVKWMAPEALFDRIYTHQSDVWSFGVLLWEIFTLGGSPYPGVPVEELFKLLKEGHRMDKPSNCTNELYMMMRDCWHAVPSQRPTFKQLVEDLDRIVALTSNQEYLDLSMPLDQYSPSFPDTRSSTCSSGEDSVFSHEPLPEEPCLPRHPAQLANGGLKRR
MEASUREMENT NAME: inhibition at 1 µM (%)

>  <COMPOUND>
Cn1cc(-c2cnc3c(c2)ncn3-c2cc(NS(=O)(=O)NC3CC3)cc(-c3ccc(F)cc3F)c2)cn1 [Example 244]

>  <inhibition at 1 µM / %>
98

$$$$
>  <COMPOUND>
COc1ccc(-c2cc(NC(C)=O)cc(-n3cnc4cc(-c5cnn(C)c5)ccc43)c2)c(F)c1 [Example 190]

>  <inhibition at 1 µM / %>
96

$$$$
>  <COMPOUND>
CCS(=O)(=O)Nc1cc(-c2ccc(F)cc2F)cc(-n2cnc3cc(-c4cn(CCN5CCOCC5)nn4)ccc32)c1 [Example 49]

>  <inhibition at 1 µM / %>
98

$$$$
>  <COMPOUND>
CCS(=O)(=O)Nc1cc(-c2ccc(F)cc2F)cc(-n2cnc3cc(-n4cccn4)ccc32)c1 [Example 30]

>  <inhibition at 1 µM / %>
94

$$$$
>  <COMPOUND>
Cn1cc(-c2ccc3c(c2)ncn3-c2cc(Nc3nccs3)cc(-c3ccc(F)cc3F)c2)cn1 [Example 281]

>  <inhibition at 1 µM / %>
96

$$$$
>  <COMPOUND>
CC(C)S(=O)(=O)Nc1cc(-c2cc(F)ccc2F)cc(-n2cnc3cc(-c4cnn(CCN5CCOCC5)c4)ccc32)c1 [Example 142]

>  <inhibition at 1 µM / %>
91

$$$$
>  <COMPOUND>
O=C(Nc1cc(-c2ccc(F)cc2F)cc(-n2cnc3cc(-n4cccn4)ccc32)c1)NC1CCCC1 [Example 38]

>  <inhibition at 1 µM / %>
88

$$$$

---

target: FGFR1 kinase (Homo sapiens (Human), UniProt P11362)
pIC50: −log10 of the molar value.
MEASUREMENT NAME: pIC50

As a guide, the following entries are already answered.
>  <COMPOUND>
CC(=O)Nc1cc(-n2cccc2)cc(-n2cnc3cc(-c4cn(CCC(C)(C)O)nn4)ccc32)c1

>  <MEASUREMENT NAME>
pIC50

>  <VALUE OBSERVED>
8.74

$$$$
>  <COMPOUND>
CC(C)n1cc(-c2ccc3c(c2)ncn3-c2cc(NS(=O)(=O)C3CC3)cc(-c3ccc(F)cc3F)c2)cn1

>  <MEASUREMENT NAME>
pIC50

>  <VALUE OBSERVED>
7.70

$$$$
>  <COMPOUND>
O=C(CN1CCCCC1)Nc1cc(-c2ccc(F)cc2F)cc(-n2cnc3cc(-n4cccn4)ccc32)c1

>  <MEASUREMENT NAME>
pIC50

>  <VALUE OBSERVED>
7.35

$$$$
>  <COMPOUND>
CCS(=O)(=O)Nc1cc(-c2ccc(F)cc2F)cc(-n2cnc3cc(-n4cccn4)ccc32)c1

>  <MEASUREMENT NAME>
pIC50

>  <VALUE OBSERVED>
7.80

$$$$

1 = CCS(=O)(=O)Nc1cc(-c2ccc(F)cc2F)cc(-n2cnc3cc(-c4cnn(C)c4)cnc32)c1
2 = COc1ccc(-c2cc(NC(C)=O)cc(-n3cnc4cc(-c5cnn(C)c5)ccc43)c2)c(F)c1
input: pIC50 comparison. Which is larger, 1 or 2 ? // respond with label for picked entry
output: 2
(2: 8.37, 1: 7.85)

---

molecular target: FGFR1 kinase (Homo sapiens (Human)); assay: FGFR1 TR-FRET kinase assay; type: biochemical; conditions: 1000 nM compound
MEASUREMENT NAME: inhibition at 1 µM (%)

>  <MOLECULE>
O=C(CN1CCCCC1)Nc1cc(-c2ccc(F)cc2F)cc(-n2cnc3cc(-n4cccn4)ccc32)c1 [Example 259]

>  <TESTED SYSTEM>
FGFR1 kinase (Homo sapiens (Human))

>  <U>
%

>  <inhibition at 1 µM>
92

$$$$
>  <MOLECULE>
CC(=O)Nc1cc(-c2ccc(F)cc2F)cc(-n2cnc3cc(-c4cnn(C)c4)cnc32)c1 [Example 131]

>  <TESTED SYSTEM>
FGFR1 kinase (Homo sapiens (Human))

>  <U>
%

>  <inhibition at 1 µM>
99

$$$$
>  <MOLECULE>
CC(C)n1cc(-c2ccc3c(c2)ncn3-c2cc(NS(=O)(=O)C3CC3)cc(-c3ccc(F)cc3F)c2)cn1 [Example 204]

>  <TESTED SYSTEM>
FGFR1 kinase (Homo sapiens (Human))

>  <U>
%

>  <inhibition at 1 µM>
98

$$$$
>  <MOLECULE>
CC(=O)Nc1cc(-c2ccc(C)o2)cc(-n2cnc3cc(-c4cnn(CCN5CCOCC5)c4)ccc32)c1 [Example 83]

>  <TESTED SYSTEM>
FGFR1 kinase (Homo sapiens (Human))

>  <U>
%

>  <inhibition at 1 µM>
95

$$$$
>  <MOLECULE>
CNS(=O)(=O)N(C)c1cc(-c2ccc(F)cc2F)cc(-n2cnc3cc(-c4cnn(C(C)C)c4)cnc32)c1 [Example 217]

>  <TESTED SYSTEM>
FGFR1 kinase (Homo sapiens (Human))

>  <U>
%

>  <inhibition at 1 µM>
91

$$$$
>  <MOLECULE>
CC(=O)Nc1cc(-c2ccc(F)cc2)cc(-n2cnc3cc(-c4ccc(F)nc4)ccc32)c1 [Example 170]

>  <TESTED SYSTEM>
FGFR1 kinase (Homo sapiens (Human))

>  <U>
%

>  <inhibition at 1 µM>
92

$$$$
>  <MOLECULE>
CC(=O)Nc1cc(-c2c(F)cccc2F)cc(-n2cnc3cc(-n4cccn4)ccc32)c1 [Example 152]

>  <TESTED SYSTEM>
FGFR1 kinase (Homo sapiens (Human))

>  <U>
%

>  <inhibition at 1 µM>
79

$$$$
